SYSTEM_TESTED: human plasma kallikrein (Homo sapiens)
Construct: purchased Enzyme Research Laboratories HPKa 1303
EXPERIMENTAL_PROTOCOL: Enzyme inhibition assay (fluorogenic substrate H-Pro-Phe-Arg-AMC)
Assay type: biochemical
ASSAY_CONTEXT: Kallikrein inhibitory activity; 1 nM activated human kallikrein, 500 μM H-Pro-Phe-Arg-AMC, 1 hour room temperature; read-out: Avg. IC50
Numbered stars: 1 amine (or outer) side, 2 acyl side, 3 side chain; on linkers, the order of the positions; unused ones are H or OH. Bridge positions count the residues as written; N and C are the ends. Square brackets hold non-standard residues; d marks the D form. Peptide text beside a SMILES is read from it. mXylylene = c1cc(C[*:1])cc(C[*:2])c1; NMeY = CN[C@@H](Cc1ccc(O)cc1)C(=O)O; NMeT = CN[C@H](C(=O)O)[C@@H](C)O; dPhg = N[C@@H](C(=O)O)c1ccccc1; Tle = CC(C)(C)[C@H](N)C(=O)O; NMeS = CN[C@@H](CO)C(=O)O; Dab = NCC[C@H](N)C(=O)O; Mpa = O=C(O)CCS

COMPOUND: CC(=O)N[C@H]1CSCc2cccc(c2)CSC[C@@H](C(N)=O)NC(=O)[C@H](C)NC(=O)[C@H]([C@@H](C)O)N(C)C(=O)[C@H](Cc2c[nH]c3ccccc23)NC(=O)[C@@H]2CCCN2C(=O)[C@H](CO)N(C)C(=O)[C@H](Cc2c[nH]c3ccccc23)NC(=O)[C@H](Cc2ccc(O)cc2)N(C)C(=O)[C@H](CC(N)=O)NC1=O [Compound R2223] (Ac-CN[NMeY]W[NMeS]PW[NMeT]AC-NH2; linker 1-10 via mXylylene)
SYSTEM_TESTED: human plasma kallikrein (Homo sapiens)
IC50: > 100 µM
--
COMPOUND: CC[C@H](C)[C@@H]1NC(=O)[C@H](CO)NC(=O)[C@H](CCC(=O)O)NC(=O)CCSCc2cccc(c2)CSC[C@@H](C(=O)N[C@@H](CCCNC(=N)N)C(=O)N[C@H](C(N)=O)C(C)C)NC1=O [Compound R2051, [mXylyl(1,5)](des-NH2)C-ESICRV-NH2] ([Mpa]ESICRV-NH2; linker 1-5 via mXylylene)
SYSTEM_TESTED: human plasma kallikrein (Homo sapiens)
IC50: 0.0129 µM
--
COMPOUND: CC(C)(C)[C@H](NC(=O)[C@H](CCN)NC(=O)[C@@H]1CSCc2cccc(c2)CSCCC(=O)N2CCC[C@H]2C(=O)N[C@H](c2ccccc2)C(=O)N1)C(N)=O [Compound R2212] ([Mpa]P[dPhg]C[Dab][Tle]-NH2; linker 1-4 via mXylylene)
SYSTEM_TESTED: human plasma kallikrein (Homo sapiens)
IC50: > 100 µM

---

SYSTEM_TESTED: human plasma kallikrein (Homo sapiens, UniProt P03952)
Construct: purchased Enzyme Research Laboratories HPKa 1303
Sequence (P03952 20-390 limits assumed): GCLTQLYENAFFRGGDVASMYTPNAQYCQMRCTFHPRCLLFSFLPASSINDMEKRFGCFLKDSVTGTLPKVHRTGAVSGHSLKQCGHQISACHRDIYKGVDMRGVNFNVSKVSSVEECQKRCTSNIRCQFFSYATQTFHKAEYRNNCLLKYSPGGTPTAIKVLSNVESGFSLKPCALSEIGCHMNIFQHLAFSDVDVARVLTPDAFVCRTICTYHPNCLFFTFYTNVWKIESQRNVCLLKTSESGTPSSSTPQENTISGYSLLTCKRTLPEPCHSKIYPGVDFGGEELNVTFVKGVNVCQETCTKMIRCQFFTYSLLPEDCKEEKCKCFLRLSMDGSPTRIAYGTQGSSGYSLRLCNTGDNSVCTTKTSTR
Sequence (P03952 391-638 limits assumed): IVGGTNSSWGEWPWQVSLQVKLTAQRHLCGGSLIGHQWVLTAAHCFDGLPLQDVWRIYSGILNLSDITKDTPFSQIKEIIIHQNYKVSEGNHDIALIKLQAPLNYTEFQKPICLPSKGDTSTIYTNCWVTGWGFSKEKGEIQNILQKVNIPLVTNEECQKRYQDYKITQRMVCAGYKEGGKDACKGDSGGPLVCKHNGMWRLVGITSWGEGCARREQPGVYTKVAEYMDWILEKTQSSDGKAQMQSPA
EXPERIMENTAL_PROTOCOL: Enzyme inhibition assay (fluorogenic substrate H-Pro-Phe-Arg-AMC)
Type: biochemical
ASSAY_CONTEXT: Kallikrein inhibitory activity; 1 nM activated human kallikrein, 500 μM H-Pro-Phe-Arg-AMC, 1 hour room temperature; read-out: Avg. IC50
Numbered stars: 1 amine (or outer) side, 2 acyl side, 3 side chain; on linkers, the order of the positions; unused ones are H or OH. Bridge positions count the residues as written; N and C are the ends. Square brackets hold non-standard residues; d marks the D form. Peptide text beside a SMILES is read from it. Trp(5-Cl) = N[C@@H](Cc1c[nH]c2ccc(Cl)cc12)C(=O)O; X3 = O=C(C(Cc1ccc(Br)s1)N[*:1])[*:2]; mXylylene = c1cc(C[*:1])cc(C[*:2])c1; NMeI = CC[C@H](C)[C@H](NC)C(=O)O; dPhg = N[C@@H](C(=O)O)c1ccccc1; Chg = N[C@H](C(=O)O)C1CCCCC1; Pen = CC(C)(S)[C@H](N)C(=O)O; Phg = N[C@H](C(=O)O)c1ccccc1; Tle = CC(C)(C)[C@H](N)C(=O)O; Nva = CCC[C@H](N)C(=O)O; Aib = CC(C)(N)C(=O)O; Mpa = O=C(O)CCS
Reported IC50 values follow for various compounds
REPORTED_ENDPOINT: IC50 (nM)

COMPOUND: CC(C)[C@H](NC(=O)[C@H](CCCNC(=N)N)NC(=O)[C@@H]1CSCc2cccc(c2)CSCCC(=O)N2CCC[C@H]2C(=O)N[C@@H](C2CCCCC2)C(=O)N1)C(=O)O [Compound R2183, [mXylyl(1,4)](des-NH2)C-P-Chg-CR-V-OH] ([Mpa]P[Chg]CRV-OH; linker 1-4 via mXylylene)
RESULT_MODIFIER: >
VALUE_REPORTED: 3500
//
COMPOUND: CC(C)(C)[C@H](NC(=O)[C@H](CCCNC(=N)N)NC(=O)[C@@H]1CCn2cc(nn2)CCCCCC(=O)N2CCC[C@H]2C(=O)N[C@@H](C2CCCCC2)C(=O)N1)C(N)=O [Compound R2251]
RESULT_MODIFIER: >
VALUE_REPORTED: 100000
//
COMPOUND: CC(C)(C)[C@H](NC(=O)C(Cc1ccc(Br)s1)NC(=O)[C@@H]1CSCc2cccc(c2)CSCCC(=O)N2CCC[C@H]2C(=O)N[C@@H](c2ccccc2)C(=O)N1)C(N)=O (stereo partly shown) [Compound R2219] ([Mpa]P[Phg]C[X3][Tle]-NH2; linker 1-4 via mXylylene)
RESULT_MODIFIER: >
VALUE_REPORTED: 100000
//
COMPOUND: CC(C)C[C@H](NC(=O)[C@@H](NC(=O)[C@H](CCCNC(=N)N)NC(=O)[C@@H]1CSCc2cccc(c2)CSCCC(=O)N2CCC[C@H]2C(=O)N[C@@H](c2ccccc2)C(=O)N1)C(C)(C)C)C(=O)O [Compound R2202] ([Mpa]P[Phg]CR[Tle]L-OH; linker 1-4 via mXylylene)
RESULT_MODIFIER: =
VALUE_REPORTED: 58.8
//
COMPOUND: CCC[C@H](N)C(=O)N[C@H]1CSCc2cccc(c2)CSC[C@@H](C(=O)N[C@@H](CCCNC(=N)N)C(=O)N[C@H](C(N)=O)C(C)(C)C)NC(=O)[C@H](c2ccccc2)NC(=O)[C@@H]2CCCN2C(=O)[C@H](CCC(=O)O)NC1=O [Compound R2030, [mXylyl(2,6)]Nvl-CEP-Phg-CR-Tbg-NH2] (H-[Nva]CEP[Phg]CR[Tle]-NH2; linker 2-6 via mXylylene)
RESULT_MODIFIER: =
VALUE_REPORTED: 25
//
COMPOUND: CC(C)(C)[C@H](NC(=O)[C@H](Cc1c[nH]c2ccc(Cl)cc12)NC(=O)[C@@H]1CSCc2cccc(c2)CSCCC(=O)N2CCC[C@H]2C(=O)N[C@H](c2ccccc2)C(=O)N1)C(N)=O [Compound R2210] ([Mpa]P[dPhg]C[Trp(5-Cl)][Tle]-NH2; linker 1-4 via mXylylene)
RESULT_MODIFIER: >
VALUE_REPORTED: 75000
//
COMPOUND: CC[C@@H](C)[C@@H]1NC(=O)CCCCC/C=C/C[C@@H](C(=O)N[C@@H](CCCNC(=N)N)C(=O)N[C@H](C(N)=O)C(C)C)NC1=O [Compound R2242]
RESULT_MODIFIER: >
VALUE_REPORTED: 100000
//
COMPOUND: CC(C)(C)[C@H](NC(=O)[C@H](CCCNC(=N)N)NC(=O)[C@@H]1CCCn2cc(nn2)CCCCC(=O)N2CCC[C@H]2C(=O)N[C@@H](C2CCCCC2)C(=O)N1)C(N)=O [Compound R2248]
RESULT_MODIFIER: >
VALUE_REPORTED: 100000
//
COMPOUND: CC(C)(C)[C@H](NC(=O)[C@H](Cc1c[nH]c2ccc(Cl)cc12)NC(=O)[C@@H]1CSCc2cccc(c2)CSCCC(=O)N2CCC[C@H]2C(=O)N[C@@H](c2ccccc2)C(=O)N1)C(N)=O [Compound R2209] ([Mpa]P[Phg]C[Trp(5-Cl)][Tle]-NH2; linker 1-4 via mXylylene)
RESULT_MODIFIER: >
VALUE_REPORTED: 75000
//
COMPOUND: CCC[C@H](N)C(=O)N[C@@H]1C(=O)N[C@@H](CCC(=O)O)C(=O)N[C@@H](CO)C(=O)N[C@@H]([C@@H](C)CC)C(=O)N[C@H](C(=O)N[C@@H](CCCNC(=N)N)C(=O)N[C@H](C(N)=O)C(C)C)CSCc2cccc(c2)CSC1(C)C [Compound R2031, [mXylyl(2,6)]Nvl-Pen-ESICRV-NH2] (H-[Nva][Pen]ESICRV-NH2; linker 2-6 via mXylylene)
RESULT_MODIFIER: =
VALUE_REPORTED: 1460
//
COMPOUND: CC[C@H](C)[C@H]1C(=O)N[C@H](C(=O)N[C@@H](CCCNC(=N)N)C(=O)N[C@H](C(N)=O)C(C)C)CSCc2cccc(c2)CSC[C@H](NC(=O)[C@@H](N)CCSC)C(=O)N[C@@H](CCC(=O)O)C(=O)N[C@@H](CO)C(=O)N1C [Compound R2026, [mXylyl(2,6)]MCES-nMeI-CRV-NH2] (H-MCES[NMeI]CRV-NH2; linker 2-6 via mXylylene)
RESULT_MODIFIER: =
VALUE_REPORTED: 26
//
COMPOUND: C[C@@H]1NC(=O)C(C)(C)NC(=O)CCSCc2cccc(c2)CSC[C@@H](C(=O)N[C@@H](CCCNC(=N)N)C(=O)N[C@H](C(N)=O)C(C)(C)C)NC(=O)[C@H](C2CCCCC2)NC1=O [Compound R2091] ([Mpa][Aib]A[Chg]CR[Tle]-NH2; linker 1-5 via mXylylene)
RESULT_MODIFIER: =
VALUE_REPORTED: 3.2
//
COMPOUND: CC(C)(C)[C@H](NC(=O)[C@H](CCCNC(=N)N)NC(=O)[C@@H]1CSCc2cccc(c2)CC(=O)NCCC(=O)N2CCC[C@H]2C(=O)N[C@@H](C2CCCCC2)C(=O)N1)C(N)=O [Compound R2258]
RESULT_MODIFIER: =
VALUE_REPORTED: 498

Cited source: patent US9999650B2
